Assign t½ Ratio of pH 7.4 to pH 6.0 to each entry below.
Target: SARS-COV-2 RBD-MMH (SARS-COV-2 RBD extracellular domain with C-terminal myc-myc-hexahistidine tag) (SARS-CoV-2)
Assay: SPR 37C, mAb captured, pH 7.4 vs pH 6.0
Number, no unit, nothing else.

Q: Query: t½ Ratio of pH 7.4 to pH 6.0; subject: mAb15164 (antibody, V domains shown) VH: EVQLVESGGGLVQPGGSLRLSCAASGFAVSSNYMTWVRQAPGKGLEWVATIYSGDSTYYADSVKGRFTISRHNSKNTLSLQMNSLRADDTAIYYCARLSGVLSGTYNGAFDIWGQGTMVTVSS VL: QSALTQPASVSGSPGQSITISCTGTSSDFGNYNIVSWYQQHPGQAPKVMIYEGNKRPSGVSNRFSGSKSGHTASLTISGLQAEDEADYYCSSYAGSSTWVFGGGTKLTVLG
Result: 0.9

Q: Which t½ Ratio of pH 7.4 to pH 6.0 value belongs to mAb13459 (antibody, V domains shown) VH: EVQLVESGGGLVQPGRSLRLSCAASGFTFDDYAMHWVRQAPGKGLEWVSGISWNSGSIGYADSVKGRFTISRDNAKNSLYLQMNSLRAEDTALYYCAKDIGITTPYWGQGTLVTVSS VL: AIQMTQSPSSLSASVGDRVTITCRASQDIRNDLGWYQQKPGKAPKLLIYSASSLQTGVPSRFSGSGSGTDFTLTISSLHPEDFATYYCLQDYNYVWTFGQGTKVEIKR ?
Result: 1.1

Q: # input binder: mAb14257 (antibody, V domains shown) VH: EVQLVESGGGLVQPGGSLRLSCAASGFTVSRSYMNWVRQAPGKGLEWVSVVFTGGTTKHTDSVKGRFTISRDNSMNTLYLQMNSLRPEDTAVYYCARVAIVETTGAFDIWGQGTMVTVSS VL: QSVLTQPPSVSGAPGQRVTISCTGTSSNIGADFDVHWYQQFPGTAPKLLIYGHTNRPSGIPDRFSGSKSGTSASLAITGLQAEDEADYYCQSYDSSLSGSVVFGGGTKLTVLG ; wanted: its t½ Ratio of pH 7.4 to pH 6.0
Result: 1.1
